Values were extracted from patent US12642270B2.

- test description: Log P by HPLC on reversed phase columns (EEC directive 79/831 Annex V.A8)
- Format: physicochemical
- experimental conditions: method marked [a]
measurement label: LogP

>>> reported_measurement("COC(=O)[C@H](CCSC)NC(=O)c1sc(C#N)c(Br)c1Br")
"3.40^[a]"
>>> reported_measurement("O=C(NC(C(=O)O)C1CC1)c1sc(Br)c(Br)c1F (stereo not shown)")
"2.64^[a]"
>>> reported_measurement("N#CCNC(=O)c1sc(Cl)c(C#N)c1Br")
"2.03^[a]"
>>> reported_measurement("N#CCNC(=O)c1sc(Cl)c(Cl)c1C(F)F")
"2.50^[a]"
>>> reported_measurement("COC(=O)C1(NC(=O)c2sc(Cl)c(C#N)c2Br)CCC1")
"2.87^[a]"

Look up LogP of CCOC(=O)C(CO)NC(=O)c1sc(Cl)c(Cl)c1Br (stereo not shown) and report it.
3.06^[a]

Look up LogP of COC(=O)CNC(=O)c1cc(F)c(Cl)s1 and report it.
1.94^[a]
